# assayed system: Ubiquitin carboxyl-terminal hydrolase 7 (Homo sapiens) (UniProt Q93009)
# Sequence (Q93009 whole entry, looked up): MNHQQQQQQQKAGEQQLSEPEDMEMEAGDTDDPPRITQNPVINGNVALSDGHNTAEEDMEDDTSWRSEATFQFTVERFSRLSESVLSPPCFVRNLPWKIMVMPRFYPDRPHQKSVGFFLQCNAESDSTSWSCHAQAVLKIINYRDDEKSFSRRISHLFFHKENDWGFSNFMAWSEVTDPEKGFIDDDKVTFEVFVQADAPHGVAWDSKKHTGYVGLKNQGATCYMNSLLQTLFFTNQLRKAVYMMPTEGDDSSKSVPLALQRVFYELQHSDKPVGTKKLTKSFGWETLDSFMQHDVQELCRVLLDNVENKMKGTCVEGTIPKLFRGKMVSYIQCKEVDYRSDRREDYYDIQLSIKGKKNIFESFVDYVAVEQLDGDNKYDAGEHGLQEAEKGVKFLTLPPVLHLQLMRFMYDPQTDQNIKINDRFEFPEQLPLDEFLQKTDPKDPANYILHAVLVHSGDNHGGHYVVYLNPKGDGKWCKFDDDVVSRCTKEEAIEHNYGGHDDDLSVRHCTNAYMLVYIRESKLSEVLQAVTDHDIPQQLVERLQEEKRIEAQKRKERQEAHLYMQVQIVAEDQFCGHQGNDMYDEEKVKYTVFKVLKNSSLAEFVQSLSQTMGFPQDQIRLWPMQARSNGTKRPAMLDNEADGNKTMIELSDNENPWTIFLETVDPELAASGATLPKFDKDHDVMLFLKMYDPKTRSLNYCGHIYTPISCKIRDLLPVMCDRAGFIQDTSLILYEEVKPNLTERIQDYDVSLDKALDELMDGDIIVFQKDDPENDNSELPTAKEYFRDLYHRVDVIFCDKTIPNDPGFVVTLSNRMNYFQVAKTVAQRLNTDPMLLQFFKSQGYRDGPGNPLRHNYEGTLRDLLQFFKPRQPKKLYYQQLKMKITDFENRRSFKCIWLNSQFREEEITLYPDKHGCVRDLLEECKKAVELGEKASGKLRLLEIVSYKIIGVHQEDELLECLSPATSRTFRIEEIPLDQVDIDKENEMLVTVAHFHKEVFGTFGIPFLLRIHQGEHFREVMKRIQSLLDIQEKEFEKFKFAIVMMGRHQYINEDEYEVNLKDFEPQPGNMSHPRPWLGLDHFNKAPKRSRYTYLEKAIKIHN
# assay name: Ubiquitin-specific protease 7 DUB inhibitors, concentration-effect, biochemical, validation of primary hits (AID 1645861)
# conditions used: purified USP7, Ub-rhodamine cleavage fluorescence, 60 min
Activity calls are given as the source filed them.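 How the source made its calls: active means compounds whose peak USP7 inhibition across the dose series reached 30% or more; inactive means the rest.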
Labels: 1 for active, 0 for inactive

>>> category_label("O=C(CCn1c(=O)c2ccccc2n(CC(=O)OCc2ccccc2)c1=O)NCc1ccc2c(c1)OCO2")
0
>>> category_label("O=C(/C=C/c1ccc(F)cc1)N1CCc2ccccc2C1")
0
>>> category_label("COc1ccc(NC(=O)CC(=O)c2ccc([N+](=O)[O-])cc2)cc1S(=O)(=O)Nc1ccc(Cl)cc1")
0
>>> category_label("O=C1CC(c2ccco2)Cc2[nH]c(=O)c(-c3nc(-c4ccc(Cl)cc4)cs3)cc21 (centres undefined)")
1
>>> category_label("O=C(NCc1ccc2c(c1)OCO2)c1[nH]nc2c1COc1ccccc1-2")
0
>>> category_label("COc1c(O)cc(CC(=O)O)c(C(C)=O)c1O")
1
>>> category_label("CCCCCCCCCC(CCCCCCCCCC(=O)O)O[C@H]1O[C@@H](COC(C)=O)[C@H](O)[C@@H](O)[C@H]1OC(=O)CC(=O)O (some centres undefined)")
0
>>> category_label("COc1ccc(NC(=O)Cn2c(=O)n(Cc3ccco3)c(=O)c3ccc(C(=O)NC4CCCC4)cc32)cc1")
0
>>> category_label("Cc1sc2ccn(C)c(=O)c2c1C(=O)NC1CCCC1")
0
>>> category_label("O=C(NCCc1nc2ccccc2n1CCOc1ccccc1Cl)C1CCCCC1")
0
>>> category_label("CC(C)(C)C(=O)[C@@H]1[C@@H](C(=O)c2ccc3c(c2)OCO3)[C@@]2(C(=O)Nc3ccccc32)[C@H]2c3ccccc3C=CN12")
0
>>> category_label("COC(=O)c1c(OC)cc2c(c1C)Oc1c(Cl)c(O)c(Cl)c(C)c1C(=O)O2")
0
>>> category_label("Cc1cccc(NC(=O)CSc2nc3c(cc2C#N)C(=O)CCC3)c1")
0
>>> category_label("COc1cc(OC)cc(N2C(=O)N(CC(=O)c3ccc(Br)cc3)c3ccccc3S2(=O)=O)c1")
0
>>> category_label("C=C/C(=C/C(=O)C[C@H](C)C[C@@H](C)CC[C@H](O)[C@H](C)C(=O)CC(O)[C@H](C)[C@@H](C)OC(=O)C[C@@H](O)C1=C(C)C(=O)OC1=O)CC (some centres undefined)")
1
>>> category_label("Cc1ccc(N2CC(c3nc4ccccc4n3CCOc3cccc(C)c3)CC2=O)cc1 (centres undefined)")
1
>>> category_label("CCc1ccc(NC(=O)C(C)OC(=O)/C=C/c2ccc(S(=O)(=O)Nc3cccc(S(N)(=O)=O)c3)cc2)cc1 (centres undefined)")
0
>>> category_label("CC/C=C\\C/C=C\\C/C=C\\CCCCCCCC(=O)O")
1
>>> category_label("CCOC(=O)c1cc2c(ccn2-c2ccc(F)cc2)n1CC(=O)Nc1ccc2c(c1)OCCO2")
0
>>> category_label("COc1ccc(NC(=O)c2cc(-c3cccnc3)n[nH]2)cc1Cl")
0
>>> category_label("CCCCCC1OC(=O)c2c(C)cccc2Oc2ccc(O)c(C=O)c2/C=C/C1O (centres undefined)")
0
>>> category_label("COCCn1c(=O)[nH]c2cc(C(=O)NCCNc3ccc([N+](=O)[O-])cc3C#N)ccc2c1=O")
0
>>> category_label("Cc1ccc(C)c(NC(=O)Cn2cc(C(=O)C3CC3)c3ccccc32)c1")
1
>>> category_label("Cn1c(CCNC(=O)c2[nH]nc3c2CCc2ccccc2-3)nc2ccccc21")
0
